# test.protocol: NCI Yeast Anticancer Drug Screen. Data for the bub3 strain (AID 167)
# run.conditions: S. cerevisiae bub3 mutant strain, stronger effect = higher value; at 50.0 µM unless noted
This is part of a sample that, as a whole, favours compounds with a hit. Of some 79,000 tested, about 15% had one in any assay. Active and inactive are the calls of the source. Cut-off read from the data, not from the text of the source: active = growth inhibition above about 70%; inactive = the rest.
endpoint: growth inhibition

Below, each entry is followed by its recorded growth inhibition result.
compound=COc1ccc(C(=O)CN2CCN(c3ccccc3)CC2)cc1 endpoint="growth inhibition" result="23% (inactive)"
compound=c1ccc(-n2ncnn2)cc1 endpoint="growth inhibition" result="24.4% (inactive)"
compound=C=CCNC(=S)N/C=C(\C#N)C(N)=O endpoint="growth inhibition" result="-12.6% (inactive)"
compound=CCN(CC)CCN=c1nc(/C=C\C=C\NN(C)C(=S)SC)c(C)nn1C endpoint="growth inhibition" result="-1.05% (inactive)"
compound="Cc1ccc([N+](=O)[O-])cc1NC(=O)/C(=N/NC(=S)NN)C1SC(=S)NC1=O (configuration not stated)" endpoint="growth inhibition" result="-19.6% (inactive)"
compound=CCOc1ccccc1/C=C1\N=C(c2ccc([N+](=O)[O-])cc2)OC1=O endpoint="growth inhibition" result="30.1% (inactive)"

Quick note, growth inhibition for [Cu+2].[NH-]CC(=O)NC(Cc1ccccc1)C(=O)O.[NH-]CC(=O)NC(Cc1ccccc1)C(=O)O (configuration not stated) landed at 0.9% (inactive)
